test system: OVCAR-8; assay: NCI tumour cell line growth inhibition, 48 h
The source made the active and inactive calls. Cut-off read from the data, not from the text of the source: active = GI50 up to about 1.1 µM and inactive = higher.
// classify into TRUE (active), FALSE (inactive)

Examples with answers:
Molecule: CN(c1ccccc1)c1cc2ccccc2nn1
Answer Label: FALSE
--
Molecule: CN1C2CCC1CC(C)(O)C2 (stereo not given)
Answer Label: FALSE

Prompt: Identify the outcome logged in this assay for the molecule shown: "COc1c(-c2nc3ccc(N4CCN(C)CC4)nc3[nH]2)cc(OC)c2[nH]c(CO)nc12"
Completion: FALSE

Prompt: Identify the outcome logged in this assay for the molecule shown: "Cc1ccc(O)c(-c2csc(NCN3CCN(CNc4nc(-c5cc(C)ccc5O)cs4)CC3)n2)c1"
Completion: FALSE

###

tested on: 786-0; test: NCI tumour cell line growth inhibition, 48 h
Calls of active or inactive are those of the source. No stated cut-off is given here; in the data, active = GI50 up to about 1.1 µM and inactive = higher.
Quantity Measured: GI50

Here is how some compounds turned out for GI50.
Compound: NCCNCCCNC(=O)c1cc(-c2ccccc2)nc2ccccc12
Target: 786-0
GI50: 22.3 µM (inactive)

Compound: CCCO/S(=N\S(=O)(=O)c1ccccc1)c1ccccc1[N+](=O)[O-] (stereo not given)
Target: 786-0
GI50: > 100 µM (inactive)

Compound: Nc1nc(=O)n(C2OC(CO)C(O)C2O)c2ncc(-c3ccc(-c4ccccc4)cc3)nc12 (stereo not given)
Target: 786-0
GI50: 28.4 µM (inactive)

Compound: O=C1/C(=C/c2ccc([N+](=O)[O-])cc2)C(=O)N(c2ccccc2)C1c1ccccc1 (stereo not given)
Target: 786-0
GI50: > 10 µM (inactive)

Compound: CC1OC(O)CC(OC(=O)c2ccccc2)C1OC(=O)c1ccccc1 (stereo not given)
Target: 786-0
GI50: 29.4 µM (inactive)

Compound: O=C(c1ccccc1)c1ccc2[nH]c(-c3c(Cl)c(Cl)c(Cl)c(Cl)c3C(=O)N/N=C/c3cccc(Oc4ccccc4)c3)nc2c1
Target: 786-0
GI50: > 100 µM (inactive)

Prompt: GI50 lookup needed for "CCc1ccccc1NC(=O)C(=O)CC(=O)c1sc(Nc2ccccc2)nc1C" , thanks.
Completion: > 100 µM (inactive)

Prompt: GI50 lookup needed for "CC1(C)OC[C@@H](/C=C\CCO[Si](c2ccccc2)(c2ccccc2)C(C)(C)C)N1C(=O)c1ccccc1" , thanks.
Completion: 11.6 µM (inactive)

Prompt: GI50 lookup needed for Cc1ccc(OP(=O)(Oc2ccc(C)cc2)N2C=Cc3ccccc3C2C#N)cc1 (stereo not given) , thanks.
Completion: > 100 µM (inactive)

Prompt: GI50 lookup needed for CC1=C[P+](Cc2ccccc2)(c2ccccc2)CC1 (stereo not given) , thanks.
Completion: > 100 µM (inactive)

###

system: HCT-116; experiment: NCI tumour cell line growth inhibition, 48 h
The source made the active and inactive calls. Rule as the data show it: active = GI50 up to about 1.1 µM and inactive = higher.
Entries and their measured GI50 follow.

Here is how some molecules turned out for GI50.
Molecule: COc1ccc2c(c1)CC[C@@H]1[C@@H]2CC[C@]2(C)C(=O)/C(=C/c3ccc(N(C)C)cc3)C[C@@H]12
Result: 44 µM (inactive)

Molecule: COC(=O)[C@@H](NC(=O)[C@H](N)Cc1ccc(N(CCCl)CCCl)cc1)C(C)C
Result: 15 µM (inactive)

Molecule: Nc1ccc2c(c1)Oc1c(F)c(F)cc3c(=O)c(C(=O)O)cn-2c13
Result: 24.2 µM (inactive)

Now look at this entry.
Prompt: GI50 lookup needed for CC(=O)OCC1OC(O[C@@H]2C[C@H]3C(C)(C)[C@H](OC(C)=O)CC[C@]3(C)[C@H]3CC[C@@]45C[C@H](O)C[C@H](C)[C@@H]4CC=C5[C@@]32C)C(O)C(O)C1O (stereo not given in full) , thanks.
Completion: 2.08 µM (inactive)

###

test system: SW-620; experiment: NCI tumour cell line growth inhibition, 48 h
Calls of active or inactive are those of the source. Cut-off read from the data, not from the text of the source: active = GI50 up to about 1.1 µM and inactive = higher.
Quantity Measured: GI50

Here is how some compounds turned out for GI50.
Compound: COc1ccccc1/C=C/c1cnccn1
Quantity Measured: GI50
Result: > 10 µM (inactive)
--
Compound: O=C(c1ccco1)N(Cc1ccco1)C(=S)Nc1ccccc1
Quantity Measured: GI50
Result: 12.4 µM (inactive)
--
Compound: NC(Cc1ccc(S(=O)(=O)O)cc1)C(=O)NC(CCCCNC(=O)NCCCCC(NC(=O)C(N)Cc1ccc(S(=O)(=O)O)cc1)C(=O)NC(Cc1ccc(S(=O)(=O)O)cc1)C(=O)O)C(=O)NC(Cc1ccc(S(=O)(=O)O)cc1)C(=O)O (stereo not given)
Quantity Measured: GI50
Result: > 100 µM (inactive)

Prompt: Report GI50 for "COc1cc2nc(-c3cccs3)nc(Cl)c2cc1OC" tested on SW-620.
Completion: > 100 µM (inactive)

Prompt: Report GI50 for CN1N=C(c2ccccc2)C(C(c2ccccc2[N+](=O)[O-])C2C(=O)N(C)N=C2c2ccccc2)C1=O (stereo not given) tested on SW-620.
Completion: 99.3 µM (inactive)

Prompt: Report GI50 for "COc1cc(CNc2nc3cc(C(F)(F)F)ccc3nc2C(=O)O)cc(OC)c1OC" tested on SW-620.
Completion: 31.6 µM (inactive)

Prompt: Report GI50 for "CCOP(=O)(/C=C\n1ccc(=O)[nH]c1=O)OCC" tested on SW-620.
Completion: > 100 µM (inactive)

Prompt: Report GI50 for "O=c1[nH]nc2ccccc2c1Cl" tested on SW-620.
Completion: 13.8 µM (inactive)

Prompt: Report GI50 for "COc1cc2nc3c(=C(C#N)C#N)c4ccccc4n3c(=O)c2cc1OC" tested on SW-620.
Completion: > 100 µM (inactive)

Prompt: Report GI50 for "CC1=C(C(=O)NCc2ccccc2)C(c2ccccc2C)C(C(=O)NCc2ccccc2)=C(C)N1" tested on SW-620.
Completion: 38.8 µM (inactive)

###

system: SK-MEL-5; assay: NCI tumour cell line growth inhibition, 48 h
Active and inactive are the calls of the source. No stated cut-off is given here; in the data, active = GI50 up to about 1.1 µM and inactive = higher.
Entries and their measured GI50 follow.

Here is how some compounds turned out for GI50.
Compound: CCO/N=C\c1ccc2oc(-c3ccccc3)cc(=O)c2c1
GI50: 0.146 µM (active)
--
Compound: COc1ccc(OC)c(Cc2cnc3nc(N)nc(N)c3c2C)c1 [PIRITREXIM ISETHIONATE]
GI50: 0.0955 µM (active)
--
Compound: N#C/C=c1/c2ccccc2n2nc3ccccc3c12
GI50: 26.7 µM (inactive)

Prompt: Report GI50 for "Cc1ccc(C2=C(C#N)C(=O)N3CCN=C3S2)cc1" tested on SK-MEL-5.
Completion: > 100 µM (inactive)

Prompt: Report GI50 for COc1ccc(/C=C2\CCC(C)(CN(C)C)C2=O)cc1Br (stereo unspecified) tested on SK-MEL-5.
Completion: 14.8 µM (inactive)

Prompt: Report GI50 for "N/C(=N\N=C\c1c[nH]c2ccccc12)Nc1ccccc1" tested on SK-MEL-5.
Completion: 0.176 µM (active)

Prompt: Report GI50 for Cc1c(Cl)ccc2c1NC(=O)C2(O)C1Cc2ccccc2C1=O (stereo unspecified) tested on SK-MEL-5.
Completion: > 100 µM (inactive)

Prompt: Report GI50 for CC(=O)C1=CSC2[C@H](NC(=O)Cc3ccccc3)C(=O)N2C1C(=O)OC(c1ccccc1)c1ccccc1 (stereo partly specified) tested on SK-MEL-5.
Completion: 65.6 µM (inactive)

Prompt: Report GI50 for COc1ccc(C(C)NNC(=O)c2ccncc2)c(OC)c1 (stereo unspecified) tested on SK-MEL-5.
Completion: > 100 µM (inactive)

Prompt: Report GI50 for "N#C/C(=C\c1cc(Cl)cc(Cl)c1)c1ccccn1" tested on SK-MEL-5.
Completion: 8.51 µM (inactive)

Prompt: Report GI50 for [N-]=[N+]=NC1CC(n2cc(COCC(F)(F)F)c(=O)[nH]c2=O)OC1CO (stereo unspecified) tested on SK-MEL-5.
Completion: > 100 µM (inactive)

###

system: SNB-75; experiment: NCI tumour cell line growth inhibition, 48 h
Active and inactive are the calls of the source. Cut-off read from the data, not from the text of the source: active = GI50 up to about 1.1 µM and inactive = higher.
Entries and their measured GI50 follow.

Here is how some compounds turned out for GI50.
Compound: OC1COC2CC(Nc3ccccn3)OC12 (stereo unspecified)
GI50: > 100 µM (inactive)

Compound: Cc1ccc(O)c(-c2csc(NCN3CCN(CNc4nc(-c5cc(C)ccc5O)cs4)CC3)n2)c1
GI50: > 100 µM (inactive)

Compound: Cc1ccc(C(=C2Sc3ccccc3S2)C(=C2Sc3ccccc3S2)c2ccc(C)s2)s1
GI50: > 100 µM (inactive)

Compound: COc1cc2nc(-c3ccccc3)cc(O)c2c(OC)c1OC
GI50: > 100 µM (inactive)

Compound: COc1ccc2c(c1)/C(=C\c1c(Cl)n(-c3ccccc3)c3ccccc13)C(=O)N2
GI50: 6.59 µM (inactive)

Compound: O=C(c1ccco1)N(Cc1ccco1)C(=S)Nc1ccccc1
GI50: 18.5 µM (inactive)

Prompt: Report GI50 for [N-]=[N+]=NC1CC(n2cc(COCC(F)(F)F)c(=O)[nH]c2=O)OC1CO (stereo unspecified) tested on SNB-75.
Completion: > 100 µM (inactive)

Prompt: Report GI50 for COc1ccc2c3c(n(Cc4ccccc4)c(=O)c2c1)-c1cc(OC)c(OC)cc1C3C (stereo unspecified) tested on SNB-75.
Completion: 13.6 µM (inactive)

Prompt: Report GI50 for "CN1CCN(c2n[nH]c(=O)c3c2nnn3C2CCCCC2)CC1" tested on SNB-75.
Completion: > 100 µM (inactive)
